Field: relative viability. Provide a value for each of the molecules that follow.
# Tested on: NCI-H322M
# protocol text: relative viability (nuclei count vs DMSO), 5 days (fraction); higher = more cells survive
# condition details: first compound 0.2 µM
The answer should be written as a number, with no unit following it.

Consider the molecule Cc1csc(=NC2CCCCC2)n1/N=C/c1ccc(O)c(O)c1O [MIM1] + Cc1nc(NC(=O)N2CCC[C@H]2C(N)=O)sc1-c1ccnc(C(C)(C)C(F)(F)F)c1 [Alpelisib] (partner 2 µM) and give its measured relative viability.
0.771

Okay, and Cc1csc(=NC2CCCCC2)n1/N=C/c1ccc(O)c(O)c1O [MIM1] + Nc1nc2[nH]cc(CCc3ccc(C(=O)N[C@@H](CCC(=O)O)C(=O)O)cc3)c2c(=O)[nH]1 [Pemetrexed] (partner 0.2 µM) ?
0.614

Okay, and CN1CCN(CCOc2cc(OC3CCOCC3)c3c(Nc4c(Cl)ccc5c4OCO5)ncnc3c2)CC1 [Saracatinib] + COc1cc2c(Oc3ccc(NC(=O)C4(C(=O)Nc5ccc(F)cc5)CC4)cc3F)ccnc2cc1OCCCN1CCOCC1 [Foretinib] (partner 0.25 µM) ?
0.921

Okay, and CCNC(=O)c1noc(-c2cc(C(C)C)c(O)cc2O)c1-c1ccc(CN2CCOCC2)cc1 [Luminespib] + Cc1nc(Nc2ncc(C(=O)Nc3c(C)cccc3Cl)s2)cc(N2CCN(CCO)CC2)n1 [Dasatinib] (partner 0.075 µM) ?
0.276

Okay, and CN1CCN(CCOc2cc(OC3CCOCC3)c3c(Nc4c(Cl)ccc5c4OCO5)ncnc3c2)CC1 [Saracatinib] + COc1cccc2cc(-c3nc([C@H]4CC[C@H](C(=O)O)CC4)n4ncnc(N)c34)[nH]c12 [OSI-027] (partner 0.5 µM) ?
0.499

Okay, and Cc1csc(=NC2CCCCC2)n1/N=C/c1ccc(O)c(O)c1O [MIM1] + COc1cc2c(Oc3ccc(NC(=O)C4(C(=O)Nc5ccc(F)cc5)CC4)cc3F)ccnc2cc1OCCCN1CCOCC1 [Foretinib] (partner 0.25 µM) ?
0.986

Okay, and CN1CCN(CCOc2cc(OC3CCOCC3)c3c(Nc4c(Cl)ccc5c4OCO5)ncnc3c2)CC1 [Saracatinib] + Cc1nc(Nc2ncc(C(=O)Nc3c(C)cccc3Cl)s2)cc(N2CCN(CCO)CC2)n1 [Dasatinib] (partner 0.075 µM) ?
0.196

Okay, and CN1CCN(CCOc2cc(OC3CCOCC3)c3c(Nc4c(Cl)ccc5c4OCO5)ncnc3c2)CC1 [Saracatinib] + Nc1nc2[nH]cc(CCc3ccc(C(=O)N[C@@H](CCC(=O)O)C(=O)O)cc3)c2c(=O)[nH]1 [Pemetrexed] (partner 0.2 µM) ?
0.55

Okay, and CN1CCN(CCOc2cc(OC3CCOCC3)c3c(Nc4c(Cl)ccc5c4OCO5)ncnc3c2)CC1 [Saracatinib] + CS(=O)(=O)CCNCc1ccc(-c2ccc3ncnc(Nc4ccc(OCc5cccc(F)c5)c(Cl)c4)c3c2)o1 [Lapatinib] (partner 2 µM) ?
0.607

Okay, and CN1CCN(CCOc2cc(OC3CCOCC3)c3c(Nc4c(Cl)ccc5c4OCO5)ncnc3c2)CC1 [Saracatinib] + CC1(C)CCC(c2ccc(Cl)cc2)=C(CN2CCN(c3ccc(C(=O)NS(=O)(=O)c4ccc(N[C@H](CCN5CCOCC5)CSc5ccccc5)c(S(=O)(=O)C(F)(F)F)c4)cc3)CC2)C1 [Navitoclax] (partner 0.5 µM) ?
1.29

Okay, and Cc1csc(=NC2CCCCC2)n1/N=C/c1ccc(O)c(O)c1O [MIM1] + CC1(C)CCC(c2ccc(Cl)cc2)=C(CN2CCN(c3ccc(C(=O)NS(=O)(=O)c4ccc(N[C@H](CCN5CCOCC5)CSc5ccccc5)c(S(=O)(=O)C(F)(F)F)c4)cc3)CC2)C1 [Navitoclax] (partner 0.5 µM) ?
1.13

Okay, and CCNC(=O)c1noc(-c2cc(C(C)C)c(O)cc2O)c1-c1ccc(CN2CCOCC2)cc1 [Luminespib] + N=C(N)NC(=N)NCCc1ccccc1 [Phenformin] (partner 250 µM) ?
0.278

Okay, and CCNC(=O)c1noc(-c2cc(C(C)C)c(O)cc2O)c1-c1ccc(CN2CCOCC2)cc1 [Luminespib] + CC1(C)CCC(c2ccc(Cl)cc2)=C(CN2CCN(c3ccc(C(=O)NS(=O)(=O)c4ccc(N[C@H](CCN5CCOCC5)CSc5ccccc5)c(S(=O)(=O)C(F)(F)F)c4)cc3)CC2)C1 [Navitoclax] (partner 0.5 µM) ?
1.28

Okay, and CCNC(=O)c1noc(-c2cc(C(C)C)c(O)cc2O)c1-c1ccc(CN2CCOCC2)cc1 [Luminespib] + Cc1nc(NC(=O)N2CCC[C@H]2C(N)=O)sc1-c1ccnc(C(C)(C)C(F)(F)F)c1 [Alpelisib] (partner 2 µM) ?
0.807

Okay, and CN1CCN(CCOc2cc(OC3CCOCC3)c3c(Nc4c(Cl)ccc5c4OCO5)ncnc3c2)CC1 [Saracatinib] + C[C@]1(O)C[C@@H](c2nc(-c3ccc4ccc(-c5ccccc5)nc4c3)c3c(N)nccn32)C1 [Linsitinib] (partner 1 µM) ?
0.962

Okay, and CN1CCN(CCOc2cc(OC3CCOCC3)c3c(Nc4c(Cl)ccc5c4OCO5)ncnc3c2)CC1 [Saracatinib] + C[C@@H](Oc1cc(-c2cnn(C3CCNCC3)c2)cnc1N)c1c(Cl)ccc(F)c1Cl [Crizotinib] (partner 1 µM) ?
0.831
